# TGT: serotoninergic 5-HT7 receptor (Homo sapiens, UniProt P34969)
# Sequence (P34969 whole entry): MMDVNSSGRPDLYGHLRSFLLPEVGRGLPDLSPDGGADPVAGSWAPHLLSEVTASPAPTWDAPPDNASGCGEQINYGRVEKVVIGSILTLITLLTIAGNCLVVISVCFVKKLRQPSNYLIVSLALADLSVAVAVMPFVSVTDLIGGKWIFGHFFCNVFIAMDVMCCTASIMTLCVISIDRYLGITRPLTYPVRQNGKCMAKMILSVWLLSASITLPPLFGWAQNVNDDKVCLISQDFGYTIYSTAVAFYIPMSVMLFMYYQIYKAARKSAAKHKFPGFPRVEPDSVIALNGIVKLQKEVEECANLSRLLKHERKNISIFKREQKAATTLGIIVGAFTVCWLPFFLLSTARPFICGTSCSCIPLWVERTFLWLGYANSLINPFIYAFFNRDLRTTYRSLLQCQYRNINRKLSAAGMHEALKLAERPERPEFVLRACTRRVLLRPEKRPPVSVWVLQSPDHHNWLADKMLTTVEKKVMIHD
# ASSAY SUMMARY: Cellular functional assay, serotoninergic 5-HT7 receptor (agonism/antagonism)
# Type: cell-based
# CONDITION DETAILS: agonist effect, percent of control specific agonist response; compounds tested at 1×10^−6M; read-out: 5-HT7-ag [%]
// activation at 1 µM lookup, one value per entry

>  <COMPOUND>
O=S(=O)(NCCCCN1CCC(c2noc3cc(F)ccc23)CC1)c1cc2ccc(Cl)cc2s1 [Compound 314]

>  <activation at 1 µM [%]>
-3

$$$$
>  <COMPOUND>
O=S(=O)(NCCCCN1CCN(c2noc3ccccc23)CC1)c1ccc2ccccc2c1 [Compound 14]

>  <activation at 1 µM [%]>
-1

$$$$
>  <COMPOUND>
Cc1c(S(=O)(=O)NCCCCN2CCN(c3nsc4ccccc34)CC2)sc2ccc(F)cc12 [Compound 65]

>  <activation at 1 µM [%]>
-2

$$$$
>  <COMPOUND>
O=S(=O)(NCCCCN1CCN(c2cccc3[nH]ccc23)CC1)c1cc2ccccc2s1 [Compound 33]

>  <activation at 1 µM [%]>
19

$$$$
>  <COMPOUND>
Cc1cccc(S(=O)(=O)NCCCCN2CCN(c3noc4ccccc34)CC2)c1 [Compound 15]

>  <activation at 1 µM [%]>
0

$$$$
>  <COMPOUND>
O=S(=O)(NCCCCN1CCN(c2cccc3[nH]ccc23)CC1)c1ccc2cc(Cl)ccc2c1 [Compound 358]

>  <activation at 1 µM [%]>
10

$$$$
>  <COMPOUND>
O=S(=O)(NCCCCN1CCC(c2noc3cc(F)ccc23)CC1)c1cc2ccccc2s1 [Compound 312]

>  <activation at 1 µM [%]>
-2

$$$$
>  <COMPOUND>
O=S(=O)(NCCCCN1CCN(c2cccc3[nH]ccc23)CC1)c1cccc(F)c1 [Compound 28]

>  <activation at 1 µM [%]>
4

$$$$
>  <COMPOUND>
O=S(=O)(NCCN1CCN(c2nsc3ccccc23)CC1)c1cccc2ccccc12 [Compound 9]

>  <activation at 1 µM [%]>
0

$$$$
>  <COMPOUND>
O=S(=O)(NCCCCN1CCN(c2noc3ccccc23)CC1)c1cc2ccc(Cl)cc2s1 [Compound 288]

>  <activation at 1 µM [%]>
-2

$$$$
>  <COMPOUND>
Cc1cccc(S(=O)(=O)NCCN2CCC(c3noc4cc(F)ccc34)CC2)c1 [Compound 25]

>  <activation at 1 µM [%]>
-1

$$$$
>  <COMPOUND>
O=S(=O)(NCCCCN1CCN(c2cccc3[nH]ccc23)CC1)c1ccc2ccccc2c1 [Compound 26]

>  <activation at 1 µM [%]>
14

$$$$
>  <COMPOUND>
O=S(=O)(NCCCN1CCC(c2noc3cc(F)ccc23)CC1)c1ccc2cc(Cl)ccc2c1 [Compound 98]

>  <activation at 1 µM [%]>
-2

$$$$
>  <COMPOUND>
O=S(=O)(NCCCCN1CCN(c2nsc3ccccc23)CC1)c1csc2ccccc12 [Compound 240]

>  <activation at 1 µM [%]>
-2

$$$$
>  <COMPOUND>
O=S(=O)(NCCCN1CCC(c2noc3cc(F)ccc23)CC1)c1ccc(F)c(Cl)c1 [Compound 331]

>  <activation at 1 µM [%]>
-2

$$$$
>  <COMPOUND>
O=c1[nH]c2ccc(S(=O)(=O)NCCCN3CCN(c4nsc5ccccc45)CC3)cc2o1 [Compound 8]

>  <activation at 1 µM [%]>
-1

$$$$
>  <COMPOUND>
O=S(=O)(NCCCCN1CCN(c2cccc3[nH]ccc23)CC1)c1ccc(F)c(F)c1 [Compound 29]

>  <activation at 1 µM [%]>
5

$$$$
>  <COMPOUND>
O=S(=O)(NCCCCN1CCN(c2noc3ccccc23)CC1)c1ccc(-c2ccccc2)cc1 [Compound 283]

>  <activation at 1 µM [%]>
-2

$$$$
>  <COMPOUND>
Cc1cccc(S(=O)(=O)NCCN2CCN(c3nsc4ccccc34)CC2)c1 [Compound 11]

>  <activation at 1 µM [%]>
0

$$$$
>  <COMPOUND>
O=S(=O)(NCCCN1CCC(c2noc3cc(F)ccc23)CC1)c1ccc2cn[nH]c2c1 [Compound 352]

>  <activation at 1 µM [%]>
-2

$$$$
>  <COMPOUND>
O=S(=O)(NCCCCN1CCN(c2nsc3ccccc23)CC1)c1cc2ccc(Cl)cc2s1 [Compound 241]

>  <activation at 1 µM [%]>
-2

$$$$
